Reference source for all entries: patent US20240190987A1

Task for the reader: assign each of the following binders its reported Kd.
tested.target: T1, Ab0787
T1 construct: Fab, His-Tag, Avi-Tag; Ab0785 + HC I50M; also called LS2A R3M2; Ab787
measurement.description: BLI 1-pt +indinavir
# unit: nM | format: bare number

Ask | Reported Kd for Ab0939 (antibody, V domains shown, also called LS2B R6M5) VH: EVQLVESGGGLVQPGGSLRLSCAASGFDFSSYSIHWVRQAPGKGLEWVASISAYYGSTYYADSVKGRFTISADTSKNTAYLQMNSLRAEDTAVYYCARYYEWYKYDLYLGSLGFDYWGQGTLVTVSS VL: DIQMTQSPSSLSASVGDRVTITCRASQSVSSAVAWYQQKPGKAPKLLIYSASSLYSGVPSRFSGSRSGTDFTLTISSLQPEDFATYYCQQGGYSLITFGQGTKVEIK : what is it?
Reply | 40

Ask | For the binder shown here, Ab0953 (antibody, V domains shown, also called LS2B R6M22) VH: EVQLVESGGGLVQPGGSLRLSCAASGFDFSSYSIHWVRQAPGKGLEWVASISPYYGSTYYADSVKGRFTISADTSKNTAYLQMNSLRAEDTAVYYCARYYEWYKYDLYLGSLGFDYWGQGTLVTVSS VL: DIQMTQSPSSLSASVGDRVTITCRASQSVSSAVAWYQQKPGKAPKLLIYSASSLYSGVPSRFSGSRSGTDFTLTISSLQPEDFATYYCQQGAYSLITFGQGTKVEIK , give the reported Kd.
Reply | 50

Ask | // lookup Kd for Ab0937 (antibody, V domains shown, also called LS2B R6M3) VH: EVQLVESGGGLVQPGGSLRLSCAASGFDFSSYSIHWVRQAPGKGLEWVASASPYYGSTYYADSVKGRFTISADTSKNTAYLQMNSLRAEDTAVYYCARYYEWYKYDLYLGSLGFDYWGQGTLVTVSS VL: DIQMTQSPSSLSASVGDRVTITCRASQSVSSAVAWYQQKPGKAPKLLIYSASSLYSGVPSRFSGSRSGTDFTLTISSLQPEDFATYYCQQGGYSLITFGQGTKVEIK
Reply | 42

Ask | Requested field: Kd. Item: Ab0936 (antibody, V domains shown, also called LS2B R6M2) VH: EVQLVESGGGLVQPGGSLRLSCAASGFDFSSYSIHWVRQAPGKGLEWVAAISPYYGSTYYADSVKGRFTISADTSKNTAYLQMNSLRAEDTAVYYCARYYEWYKYDLYLGSLGFDYWGQGTLVTVSS VL: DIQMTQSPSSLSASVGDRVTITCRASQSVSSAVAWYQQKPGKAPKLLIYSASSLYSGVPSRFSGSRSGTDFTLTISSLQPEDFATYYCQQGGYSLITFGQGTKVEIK
Reply | 5.7
